- measurement-description: water solubility (PBK parameter)
- Format: physicochemical
- setup-conditions: Solubility pH 6.99, optimised based on [13], read-out: Aqueous Solubility
readout-label: solubility (µg/mL)
Numbers only, in µg/mL.

Which solubility is listed for Cc1cc(C(C)(C)C)c(O)c(C(C)(C)C)c1 [Butylated hydroxytoluene (BHT), Butylated hydroxytoluene] ?
5

====

So I've got a bunch of compounds here, and I need their TKVF values.
- measurement-description: Human in vivo PK data: concentration-dose ratio (CDR) and toxicokinetic variability factor (TKVF);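 further: Literature-pooled human in vivo PK data, plasma, serum or cord blood concentrations per daily dose, weighted by study population size across non-pregnant, pregnant and fetal groups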
- setup-conditions: female, human, in vivo
Answers are plain numbers.

These recorded examples may help you get a feel for the data.
{"columns": ["compound", "TKVF"],
 "data": [
  ["CC(=O)CC(c1ccccc1)c1c(O)c2ccccc2oc1=O (stereo not shown)", 1.93],
  ["C[C@@H]1C[C@H]2[C@@H]3CCC4=CC(=O)C=C[C@]4(C)[C@@]3(F)[C@@H](O)C[C@]2(C)[C@@]1(O)C(=O)CO", 2.51],
  ["CN(CCOc1ccc(CC2SC(=O)NC2=O)cc1)c1ccccn1 (stereo not shown)", 1.71],
  ["CN(C)C(=N)N=C(N)N", 2.75],
  ["CC1=C(/C=C/C(C)=C/C=C/C(C)=C/C(=O)O)C(C)(C)CCC1 [all-trans-retinoic acid (ATRA), all-trans-retinoic acid]", 1.47]
]}

For each entry beneath this line, provide reported TKVF.
1. C[C@H]1O[C@@H](O[C@H]2[C@@H](O)C[C@H](O[C@H]3[C@@H](O)C[C@H](O[C@H]4CC[C@@]5(C)[C@H](CC[C@@H]6[C@@H]5C[C@@H](O)[C@]5(C)[C@@H](C7=CC(=O)OC7)CC[C@]65O)C4)O[C@@H]3C)O[C@@H]2C)C[C@H](O)[C@@H]1O
2. Cn1c(=O)c2[nH]cnc2n(C)c1=O

2.35
1.73
